- measurement notes: ATG_CMV_CIS: Attagene CIS-FACTORIAL HepG2 Assay for human CMV (Internal Marker) (AID 2282928);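 further: endpoint acts as a background internal control marker rather than a target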
- test context: HepG2 CMV promoter reporter, transcription factor profiling; actives raise or lower the signal
- Procedure: ATG_CIS is a cell-based, multiplexed-readout assay that uses HepG2, a human liver cell line, with measurements taken at 24 hours after chemical dosing in a 24-well plate.ATG_CMV_CIS is one of 52 assay component(s) measured or calculated from the ATG_CIS assay. […] This assay endpoint, ATG_CMV_CIS, was analyzed with bidirectional fitting relative to DMSO as the negative control and baseline of activity. […]
Activity calls are given as the source filed them. How the source made its calls: active means hit-call score of the fitted dose curve at least 0.9, where 1 is the maximum; inactive means score below 0.9.
Pick one and only one: yes (1) for active, no (0) for inactive

Here are 6 compounds together with their reported answers.
* CC(CCC(=O)O)(c1ccc(O)cc1)c1ccc(O)cc1 | no (0)
* CCCCNS(=O)(=O)c1ccccc1 | no (0)
* CCC(C)C(=O)OCCc1ccccc1 (stereo not given) | no (0)
* C[N+](C)(C)CCCNS(=O)(=O)C(F)(F)C(F)(F)C(F)(F)C(F)(F)C(F)(F)C(F)(F)C(F)(F)C(F)(F)F | yes (1)
* CCc1cccc(C)c1N(C(=O)CS(=O)(=O)O)C(C)COC (stereo not given) | no (0)
* CCc1occc(=O)c1O | no (0)

-- ask Each compound tested received a call. Report the one for "CC(C)[N+](C)(CCOC(=O)C1c2ccccc2Oc2ccccc21)C(C)C" .
-- reply no (0)

-- ask Each compound tested received a call. Report the one for "CC(C)=CCl" .
-- reply no (0)

-- ask Each compound tested received a call. Report the one for "CCNc1nc(NC(C)(C)C)nc(OC)n1" .
-- reply no (0)

-- ask Each compound tested received a call. Report the one for "CC(C)(C)NC(=O)[C@H]1CC[C@H]2[C@@H]3CC[C@H]4NC(=O)C=C[C@]4(C)[C@H]3CC[C@]12C" .
-- reply no (0)

-- ask Each compound tested received a call. Report the one for "c1ccc2sc(SSN3CCOCC3)nc2c1" .
-- reply yes (1)

-- ask Each compound tested received a call. Report the one for "CC=CC(=O)OCC(C)C" .
-- reply no (0)

-- ask Each compound tested received a call. Report the one for "Cc1ccc([N+](=O)[O-])cc1N" .
-- reply no (0)

-- ask Each compound tested received a call. Report the one for "CC(=O)C(C)C" .
-- reply no (0)

-- ask Each compound tested received a call. Report the one for "N#CC1(N)CCCCC1" .
-- reply no (0)

-- ask Each compound tested received a call. Report the one for "CC(C)(c1ccccc1)c1ccc(Nc2ccc(C(C)(C)c3ccccc3)cc2)cc1" .
-- reply no (0)

-- ask Each compound tested received a call. Report the one for "CCN(CC)c1cccc(C)c1" .
-- reply no (0)

-- ask Each compound tested received a call. Report the one for "C1CCSC1" .
-- reply no (0)

-- ask Each compound tested received a call. Report the one for "Clc1cc(Cl)c(Cl)c(Cl)c1Cl" .
-- reply yes (1)

-- ask Each compound tested received a call. Report the one for CC(C=O)c1ccccc1 (stereo not given) .
-- reply no (0)

-- ask Each compound tested received a call. Report the one for "c1ccc(Nc2cccc3ccccc23)cc1" .
-- reply yes (1)

-- ask Each compound tested received a call. Report the one for "CC(C)c1ccc2ncccc2c1" .
-- reply yes (1)

-- ask Each compound tested received a call. Report the one for "Oc1ccccc1Cc1ccccc1O" .
-- reply no (0)

-- ask Each compound tested received a call. Report the one for "CCOC(=O)OC(=O)OCC" .
-- reply no (0)
